STUDY_SYSTEM: human PRMT5/MEP50 enzyme (Homo sapiens (Human))
METHOD_NOTES: PRMT5 Biochemical Assay (TR-FRET) in the presence of MTA
ASSAY_SETUP: with 800 nM MTA; 10 nM PRMT5/MEP50, 3 μM S-adenosylmethionine, histone H4 peptide
REPORTED_METRIC: pIC50
Would you please state pIC50, meaning minus log10 of the concentration in mol/L, as a bare number?

For reference, reported pIC50 for Cn1ncc(-c2ccc3c(=O)[nH]cc(CN)c3c2)c1-c1c(F)cc2ccccc2c1C#N [Example 1] stands at 8.49

* * *

STUDY_SYSTEM: human PRMT5/MEP50 enzyme (Homo sapiens (Human), UniProt O14744)
Sequence (O14744 whole entry): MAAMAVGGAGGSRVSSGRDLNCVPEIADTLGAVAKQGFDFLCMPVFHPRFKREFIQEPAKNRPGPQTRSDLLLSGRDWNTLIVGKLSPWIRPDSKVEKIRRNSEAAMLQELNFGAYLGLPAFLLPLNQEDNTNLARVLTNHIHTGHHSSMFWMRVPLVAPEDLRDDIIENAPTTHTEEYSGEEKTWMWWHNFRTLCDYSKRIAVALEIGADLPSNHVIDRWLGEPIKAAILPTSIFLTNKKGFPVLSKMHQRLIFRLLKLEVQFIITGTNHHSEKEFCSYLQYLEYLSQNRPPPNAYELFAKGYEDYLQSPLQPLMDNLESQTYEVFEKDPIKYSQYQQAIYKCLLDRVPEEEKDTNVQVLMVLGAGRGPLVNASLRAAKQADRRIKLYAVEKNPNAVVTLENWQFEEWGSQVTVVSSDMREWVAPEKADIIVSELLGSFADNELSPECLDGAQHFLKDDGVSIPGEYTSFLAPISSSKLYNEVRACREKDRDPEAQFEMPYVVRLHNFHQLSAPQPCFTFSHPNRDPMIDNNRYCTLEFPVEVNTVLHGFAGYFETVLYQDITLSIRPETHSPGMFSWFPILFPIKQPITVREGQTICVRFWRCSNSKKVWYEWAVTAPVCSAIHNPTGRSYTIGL
Sequence (Q9BQA1 whole entry partner): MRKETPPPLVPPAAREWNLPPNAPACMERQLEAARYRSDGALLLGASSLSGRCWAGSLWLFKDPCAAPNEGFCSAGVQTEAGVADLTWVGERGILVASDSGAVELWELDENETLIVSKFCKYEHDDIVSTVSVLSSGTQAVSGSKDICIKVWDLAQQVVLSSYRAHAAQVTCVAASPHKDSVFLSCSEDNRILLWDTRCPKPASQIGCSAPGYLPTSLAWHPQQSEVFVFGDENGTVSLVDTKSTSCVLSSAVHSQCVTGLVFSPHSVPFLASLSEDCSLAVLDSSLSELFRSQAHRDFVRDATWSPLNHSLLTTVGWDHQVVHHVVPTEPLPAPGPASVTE
METHOD_NOTES: PRMT5 Biochemical Assay (TR-FRET) in the absence of MTA
ASSAY_SETUP: without MTA; 10 nM PRMT5/MEP50, 3 μM S-adenosylmethionine, histone H4 peptide
Method: The assay measures the methylation activity of purified human PRMT5/MEP50 enzyme toward histone H4-R3. […] Plates were sealed and incubated at room temperature for 60 minutes, and the TR-FRET signals (excitation 337 nm, emission 665/620 nm) were recorded on a PHERAstar FSX plate reader (BMG Labtech). The inhibition percentage of PRMT5/MEP50 activity in presence of increasing concentrations of compounds was calculated based on the ratio of fluorescence at 665 nm to that at 620 nm. […]
Where a name gives a salt, the structure may show the parent alone.
Threshold check on IC50: strictly below 80 nM is Criterion met; on or above 80 nM is Criterion not met.

Cn1ncc(-c2ccc3c(=O)[nH]cc(CN)c3c2)c1-c1cc(Cl)cc(OC2CC2)c1C#N [Example 2, hydrochloride]
Criterion met
Cc1cc(-c2c(-c3ccc4c(=O)[nH]cc(CN)c4c3)cnn2C)c(C#N)c2ccccc12 [Example 4, hydrochloride]
Criterion met
Cn1ncc(-c2ccc3c(=O)[nH]cc(CN)c3c2)c1-c1c(F)cc2ccccc2c1C#N [Example 1]
Criterion met
Cn1ncc(-c2ccc3c(=O)[nH]cc(CN)c3c2)c1-c1cccc(OC2CC2)c1C#N [Example 6, hydrochloride]
Criterion not met
Cn1ncc(-c2ccc3c(=O)[nH]cc(CN)c3c2)c1-c1c(F)c(Cl)cc(OC2CC2)c1C#N [Example 3, hydrochloride]
Criterion met

Q) Strictly below 80 nM in IC50? Cn1ncc(-c2ccc3c(=O)[nH]cc(CN)c3c2)c1-c1cc(C(F)(F)F)cc(OC2CC2)c1C#N [Example 7, hydrochloride]
A) Criterion not met

Q) Threshold test, IC50 < 80 nM: Cn1ncc(-c2ccc3c(=O)[nH]cc(CN)c3c2)c1-c1cc(Cl)c2ccccc2c1C#N [Example 5, hydrochloride]
A) Criterion met

* * *

STUDY_SYSTEM: human PRMT5/MEP50 enzyme (Homo sapiens (Human), UniProt O14744)
METHOD_NOTES: PRMT5 Biochemical Assay (TR-FRET) in the presence of MTA
ASSAY_SETUP: with 800 nM MTA; 10 nM PRMT5/MEP50, 3 μM S-adenosylmethionine, histone H4 peptide
Counter-ions that a name gives are not always drawn.
REPORTED_METRIC: pIC50
API: returns pIC50 as number; meaning -log10 of concentration in mol/L.

Cn1ncc(-c2ccc3c(=O)[nH]cc(CN)c3c2)c1-c1cc(C(F)(F)F)cc(OC2CC2)c1C#N [Example 7, hydrochloride]
8.21
Cn1ncc(-c2ccc3c(=O)[nH]cc(CN)c3c2)c1-c1cc(Cl)cc(OC2CC2)c1C#N [Example 2, hydrochloride]
8.48
Cn1ncc(-c2ccc3c(=O)[nH]cc(CN)c3c2)c1-c1c(F)c(Cl)cc(OC2CC2)c1C#N [Example 3, hydrochloride]
8.12
Cc1cc(-c2c(-c3ccc4c(=O)[nH]cc(CN)c4c3)cnn2C)c(C#N)c2ccccc12 [Example 4, hydrochloride]
8.57
Cn1ncc(-c2ccc3c(=O)[nH]cc(CN)c3c2)c1-c1cccc(OC2CC2)c1C#N [Example 6, hydrochloride]
8.46

Now take the following molecule into account.
Query Cn1ncc(-c2ccc3c(=O)[nH]cc(CN)c3c2)c1-c1cc(Cl)c2ccccc2c1C#N [Example 5, hydrochloride] yields pIC50 of 8.57
